- System: H358
- assayOverview: Cancer cell growth inhibition, SRB assay
- Format: cell-based, human
- Design: unit not given here
- experimentalSetup: H358; at 10 μM; SRB at Day 6; NE = no activity at 10 micromolar
Class Condition met: Percentage of Growth Inhibition at least 0.1. Class Condition not met: Percentage of Growth Inhibition below 0.1.

molecule	system	className
C[N+]1(C)CCCC(CC(=O)O)(NC(=O)c2ccc(CCc3ccccc3)o2)C1 (stereo not drawn) [Example S14, 2,2,2-trifluoroacetate]	H358	Condition met
CCCCCc1ccc(S(=O)(=O)NC2(CC(=O)O)CCC[N+](C)(C)C2)cc1 (stereo not drawn) [Example S12, 2,2,2-trifluoroacetate]	H358	Condition not met
C[N+]1(C)CCC(CC(=O)O)(NC(=O)c2ccc(C#Cc3ccccc3)o2)CC1 [Example S6, 2,2,2-trifluoroacetate]	H358	Condition met
CCCCCCCCCCc1ccc(C(=O)NC2(CC(=O)O)CC[N+](C)(C)C2)cc1 (stereo not drawn) [Example S22, 2,2,2-trifluoroacetate]	H358	Condition met
CCCCCc1ccc(S(=O)(=O)NC2(CC(=O)O)CCN(C)CC2)cc1 [Example S3, 2,2,2-trifluoroacetate]	H358	Condition met
CCCCCCCCc1ccc(NC(=O)NC2(CC(=O)O)CCN(C)CC2)cc1 [Example S1, 2,2,2-trifluoroacetate]	H358	Condition met
CCCCCc1ccc(S(=O)(=O)NC2(CC(=O)O)CN(C)C2)cc1 [Example S27, 2,2,2-trifluoroacetate]	H358	Condition not met
O=C(O)CC1(NC(=O)c2ccc(C#Cc3ccccc3)o2)CNC1 [Example S26, 2,2,2-trifluoroacetate]	H358	Condition met
C[N+]1(C)CCC(CC(=O)O)(NC(=O)c2ccc(CCc3ccccc3)o2)CC1 [Example S5, 2,2,2-trifluoroacetate]	H358	Condition not met

====

- Tested on: HCT-15
- assayOverview: Cancer cell growth inhibition, SRB assay
- Type: cell-based, human
- Parameters: scale not given here
- experimentalSetup: HCT-15; at 10 μM; SRB at Day 6; NE = no activity at 10 micromolar
# Percentage of Growth Inhibition >= 0.06% gives 1, anything below gives -1

molecule	className
CCCCCCCCCCc1ccc(C(=O)NC2(CC(=O)O)CCN(C)C2)cc1 (centres unmarked) [Example S21, 2,2,2-trifluoroacetate]	-1
CCCCCCCCCCc1ccc(C(=O)NC2(CC(=O)O)CC[N+](C)(C)C2)cc1 (centres unmarked) [Example S22, 2,2,2-trifluoroacetate]	1
CCCCCc1ccc(S(=O)(=O)NC2(CC(=O)O)CCN(C)CC2)cc1 [Example S3, 2,2,2-trifluoroacetate]	1
CCCCCc1ccc(S(=O)(=O)NC2(CC(=O)O)CNC2)cc1 [Example S25, 2,2,2-trifluoroacetate]	-1

====

- System: PC-3
Recorded GI50, one value per entry.

molecule	system	relationalOperator	GI50 (µM)
CCCCCCCCc1ccc(NC(=O)NC2(CC(=O)O)C[N+](C)(C)C2)cc1 [Example S24, 2,2,2-trifluoroacetate]	PC-3	=	21
CCCCCCCCc1ccc(NC(=O)NC2(CC(=O)O)CC[N+](C)(C)CC2)cc1 [Example S2, 2,2,2-trifluoroacetate]	PC-3	=	8.2
CCCCCCCCc1ccc(NS(=O)(=O)NC2(CC(=O)O)CCCN(C)C2)cc1 (stereo not drawn) [Example S15, 2,2,2-trifluoroacetate]	PC-3	=	2.8
CCCCCCCCc1ccc(NS(=O)(=O)NC2(CC(=O)O)CCN(C)CC2)cc1 [Example S7, 2,2,2-trifluoroacetate]	PC-3	=	6
CCCCCCCCc1ccc(NC(=O)NC2(CC(=O)O)CCC[N+](C)(C)C2)cc1 (stereo not drawn) [Example S10, 2,2,2-trifluoroacetate]	PC-3	=	0.9
CCCCCc1ccc(S(=O)(=O)NC2(CC(=O)O)CC[N+](C)(C)CC2)cc1 [Example S4, 2,2,2-trifluoroacetate]	PC-3	>	50
